tested on: G. lamblia trophozoites (luciferase expressing, WBC6); test: microbe, parasite or virus in culture; format: cell-based, Giardia lamblia; conditions: initial Pathogen Box screen, single concentration 16 µM, inhibition compared to DMSO wells
MEASUREMENT LABEL: Giardia (16 uM) Mean % inhibition (%)
Report only the number, with the unit % understood.

Worked examples follow.
MOLECULE	ENDPOINT UNIT	EXPERIMENTAL RESULT
COc1ccc(Cl)cc1NC(=O)CN(C)C(=O)c1cnn(-c2ccccc2)n1	%	7.5
Cc1cccc(Cn2ccc(NC(=O)c3ccc4c(c3)OCO4)n2)c1	%	57
CC(C)(C)n1nc(Cc2cccc3ccccc23)c2c(N)ncnc21	%	21
CC1CC1C(=O)NC1CCN(CC2(c3ccccc3)CCCCC2)CC1 (stereo not shown)	%	2.27
CC(C(=O)N1CCCC1)N1CCN(S(=O)(=O)c2ccc(C(C)(C)C)cc2)CC1 (stereo not shown)	%	13
N#Cc1ccc(-c2ccc(OCC(N)=O)cc2)cc1	%	74
O=C(c1ccco1)N(CCCn1ccnc1)c1nc2c(Cl)cccc2s1	%	31
CCc1nn(C)c(C(=O)NCc2ccc(Oc3ccc(C)cc3)cc2)c1Cl	%	72
CC(C)(CN)c1nc(-c2ccc(Cl)c(O)c2)c(-c2ccnc(N)n2)[nH]1	%	35
O=C(Nc1ccc(F)c(-c2nc3ncc(-c4ccccc4)cc3[nH]2)c1)N1CCCC1	%	24

response.value for CNC(=O)C1Cc2c([nH]c3cc(Cl)ccc23)C2(CCN(CCc3ccccc3)CC2)N1 (stereo not shown) (field: Giardia (16 uM) Mean % inhibition) = 81

Looking up `CC(C)(C)n1nc(-c2ccccc2)c2c(N)ncnc21` , I found its Giardia (16 uM) Mean % inhibition recorded as 63

Input `O=C(Nc1ccnc(-c2cccnc2)n1)c1cc(C(F)(F)F)cc(C(F)(F)F)c1` . Output Giardia (16 uM) Mean % inhibition: 16

Source of measurements: paper PMC6095626
